# protocol_text: Rat IV and PO PK studies
# Format: in vivo, male Sprague-Dawley rats
# assay_setup: male, Sprague-Dawley, plasma, oral, 3 mg/kg
Assign rule met whenever AUC does not fall below 8000 ng·h/mL; assign rule not met whenever it does.

Examples from the recorded data:
COc1ccccc1S(=O)(=O)NC(=O)c1ccc(-n2ccc(OCC3(C(F)(F)F)CC3)n2)nc1N1C[C@@H](C)CC1(C)C: rule met
C[C@@H]1CN(c2nc(-n3ccc(OCC4C(C)(C)C4(C)C)n3)ccc2C(=O)NS(=O)(=O)c2cccc(F)c2)C(C)(C)C1: rule not met
C[C@@H]1CN(c2nc(-n3ccc(OCCC(C4CC4)C4CC4)n3)ccc2C(=O)NS(=O)(=O)c2ccccc2)C(C)(C)C1: rule not met
C[C@@H]1CN(c2nc(-n3ccc(OCC4(C(F)(F)F)CC4)n3)ccc2C(=O)NS(=O)(=O)c2ccc(C#N)cc2)C(C)(C)C1: rule met
C[C@@H]1CN(c2nc(-n3ccc(OCC4(C(F)(F)F)CC4)n3)ccc2C(=O)NS(=O)(=O)c2ccccc2)C(C)(C)C1: rule met

Then there is this compound:
*Q* Please indicate if the recorded AUC for C[C@@H]1CN(c2nc(-n3ccc(OCCC4(C(F)(F)F)CC4)n3)ccc2C(=O)NS(=O)(=O)c2ccccc2)C(C)(C)C1 meets or exceeds 8000 ng·h/mL.
*A* rule met
